- assayedTarget: T1, human δ opioid receptor (human, UniProt P41143 1-372)
- T1 construct: whole, on cells; membrane preparations of the transfected cells were used; also called hDOR; DOR
- T1 sequence (P41143 whole entry, stated change not applied): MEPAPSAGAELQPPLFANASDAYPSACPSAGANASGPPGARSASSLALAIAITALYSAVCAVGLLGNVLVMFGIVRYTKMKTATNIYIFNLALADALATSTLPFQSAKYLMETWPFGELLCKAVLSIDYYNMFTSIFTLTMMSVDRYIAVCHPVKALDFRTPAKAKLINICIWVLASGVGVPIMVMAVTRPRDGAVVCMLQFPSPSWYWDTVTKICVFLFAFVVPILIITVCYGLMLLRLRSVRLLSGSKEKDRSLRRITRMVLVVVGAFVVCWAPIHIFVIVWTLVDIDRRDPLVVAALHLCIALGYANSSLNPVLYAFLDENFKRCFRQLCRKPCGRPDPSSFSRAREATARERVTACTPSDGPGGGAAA
- experimentNotes: competition vs [3H]DPDPE, hDOR cell membranes
pKi: −log10 of the molar value.

binder | pKi
YXGFXPLW (D-Pen at 2 and Pen at 5 (written X); disulfide 2-5; C-terminal NH-3,5-Bzl(CF3)2 amide, cyclic; also called TY046) [Tyr[DPenGlyPhePen]ProLeuTrpNHBn(CF3)2] | 8.77
